Source: paper PMC3276251

Average amount in urine per 10-min period listing for selected molecules.
assay: Isolated perfused rat kidney; type: in vitro ADME, Sprague-Dawley rats; details: Kidney A; 40–50, 50–60, 60–70 and 70–80 min periods; S.D. in parenthesis

Check the records and state Average amount in urine per 10-min period for `COc1cccc2c1cc1c3c(cc4c(c32)OCO4)C(=O)N1`
0.029 (0.013) nanomoles

Check the records and state Average amount in urine per 10-min period for `O=C(O)c1cc2c(c3c1c([N+](=O)[O-])cc1c(OS(=O)(=O)O)cccc13)OCO2`
0.36 (0.05) nanomoles

Check the records and state Average amount in urine per 10-min period for `O=C(O)c1cc2c(c3c1c([N+](=O)[O-])cc1c(O)cccc13)OCO2`
0.72 (0.11) nanomoles

Check the records and state Average amount in urine per 10-min period for O=C1Nc2cc3c(OC4OC(C(=O)O)C(O)C(O)C4O)cccc3c3c4c(cc1c23)OCO4 (centres unmarked)
0.019 (0.007) nanomoles

Check the records and state Average amount in urine per 10-min period for `COc1cccc2c1cc([N+](=O)[O-])c1c(C(=O)O)cc3c(c12)OCO3`
0.36 (0.05) nanomoles
